- ASSAY_SUMMARY: gradient 5% acetonitrile 3 min, to 50% in 2 min, to 85% in 15 min, held 3 min, 100 µL/min
- MEASUREMENT_CONDITIONS: column: Zorbax Extend-C18 2.1 x 50 mm; eluents: water / acetonitrile, 0.1% formic acid
Lab note: compare RP-LC retention time with 800 s, writing Y if less and N if equal or more.

Query: In plain terms, does `COc1ccc2c(c1)c(CN1CCC(C(=O)NCCN(C)Cc3ccccc3)CC1)cn2C` come in under 800 s for RP-LC retention time?
Response: Y

Query: Find out if reported RP-LC retention time for COc1ccc(Cl)cc1NC(=O)C(C)Oc1cc(C(F)(F)F)c2c(C)nn(C)c2n1 (configuration not stated) is less than 800 s
Response: N
